Test system: LPS-induced PBMCs
TEST DETAILS: Inflammatory cytokine release from LPS-induced PBMCs (Luminex)
Format: cell-based, human
EXPERIMENTAL CONTEXT: fold change from LPS-treated PBMCs; compounds 10 μM (DEX 1 μg/ml) 2 h, then LPS 0.1 μg/ml 24 h; negative = reduced
Mark condition met for IL-1β under -3 fold change, condition not met if at or over.

>>> label_class("CCCCCCC(C)(C)c1cc(O)c2c(c1)OC(C)(C)[C@@H]1CC=C(C(=O)NC(C)(C)CCO)C[C@@H]21")
"condition met"
>>> label_class("CCCCCCC(C)(C)c1cc(O)c2c(c1)OC(C)(C)[C@@H]1CC=C(C(=O)NC3CC(F)(F)C3)C[C@@H]21")
"condition met"
>>> label_class("CCCCC(C)(C)c1cc(O)c2c(c1)OC(C)(C)[C@@H]1CC=C(C(=O)O)C[C@@H]21")
"condition met"
>>> label_class("CCCCCCC(C)(C)c1cc(O)c2c(c1)OC(C)(C)[C@@H]1CC=C(C(=O)NC3(C(F)(F)F)CC3)C[C@@H]21")
"condition not met"
>>> label_class("CCCC(C)(C)c1cc(O)c2c(c1)OC(C)(C)[C@@H]1CC=C(C(=O)O)C[C@@H]21")
"condition not met"
>>> label_class("CCCCCCC(C)(C)c1cc(O)c2c(c1)OC(C)(C)[C@@H]1CC=C(C(=O)NC(C)C)C[C@@H]21")
"condition not met"
>>> label_class("C[C@@H]1C[C@H]2[C@@H]3CCC4=CC(=O)C=C[C@]4(C)[C@@]3(F)[C@@H](O)C[C@]2(C)[C@@]1(O)C(=O)CO [DEX, dexamethasone, reference compound]")
"condition met"

====

STUDY SYSTEM: CB1 receptor (Homo sapiens, UniProt P21554)
Sequence (P21554 whole entry): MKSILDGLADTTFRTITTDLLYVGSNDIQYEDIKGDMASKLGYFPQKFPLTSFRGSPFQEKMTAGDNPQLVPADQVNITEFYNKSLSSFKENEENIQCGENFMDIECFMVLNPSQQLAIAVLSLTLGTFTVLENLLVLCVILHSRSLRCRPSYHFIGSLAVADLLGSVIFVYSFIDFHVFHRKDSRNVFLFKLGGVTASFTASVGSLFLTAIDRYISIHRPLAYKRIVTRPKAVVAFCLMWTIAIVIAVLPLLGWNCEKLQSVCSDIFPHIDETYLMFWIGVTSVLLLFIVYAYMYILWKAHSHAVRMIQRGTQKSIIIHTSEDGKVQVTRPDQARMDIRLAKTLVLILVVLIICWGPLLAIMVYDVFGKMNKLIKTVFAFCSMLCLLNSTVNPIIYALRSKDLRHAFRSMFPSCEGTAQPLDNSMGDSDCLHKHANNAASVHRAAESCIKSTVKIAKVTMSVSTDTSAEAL
TEST DETAILS: cAMP Assay #1: CB1 adenylylcyclase assay in CHO cells
Type: cell-based
Parameters: expressed in transfected cells; host or cells: CHO cells
EXPERIMENTAL CONTEXT: CHO cells, 20 min 37° C., relative to 10 nM CP 55940; read-out: CB1 Activity EC50 (cAMP)
pEC50: −log10 of the molar value.
OUTCOME MEASURE: pEC50

>>> value_observed("CCCCCCC(C)(C)c1cc(O)c2c(c1)OC(C)(C)[C@@H]1CC=C(C(=O)NC(C)(C)CCO)C[C@@H]21 [Compound 15]")
7.17
>>> value_observed("CCCCCCC(C)(C)c1cc(O)c2c(c1)OC(C)(C)[C@@H]1CC=C(C(=O)N[C@H](C)CCO)C[C@@H]21 [Compound 14]")
8.00
>>> value_observed("CCCCCCC(C)(C)c1cc(O)c2c(c1)OC(C)(C)[C@@H]1CC=C(C(=O)NC(CO)CO)C[C@@H]21 [Compound 25]")
7.80

====

STUDY SYSTEM: UniProt:P34972
TEST DETAILS: cAMP Assay #2: Hit Hunter cAMP assay, Gi-coupled agonist activity, CB2
Format: cell-based
Parameters: host or cells: cAMP Hunter cell lines
pEC50: −log10 of the molar value.
Please note: Fulfilled applies when pEC50 is 8 or greater, and Not fulfilled applies otherwise.

>>> label_class("CCCCC(C)(C)c1cc(O)c2c(c1)OC(C)(C)[C@@H]1CC=C(C(=O)O)C[C@@H]21 [Compound 109]")
"Not fulfilled"
>>> label_class("CCCCCCC(C)(C)c1cc(O)c2c(c1)OC(C)(C)[C@@H]1CC=C(C(=O)NC3(C(F)(F)F)CC3)C[C@@H]21 [Compound 99]")
"Fulfilled"
>>> label_class("CCCCCCC(C)(C)c1cc(O)c2c(c1)OC(C)(C)[C@@H]1CC=C(C(=O)NC(C)(C)C(F)(F)F)C[C@@H]21 [Compound 100]")
"Fulfilled"
>>> label_class("CCCCCCC(C)(C)c1cc(O)c2c(c1)OC(C)(C)[C@@H]1CC=C(C(=O)NCCO)C[C@@H]21 [Compound 5]")
"Fulfilled"

====

TEST DETAILS: Pharmacokinetics after PO dose in mice
Type: in vivo, Male C57BL/6 mice
EXPERIMENTAL CONTEXT: male, C57BL/6, mouse, in vivo; 10 mg/kg PO; read-out: AUC0-24 hr
Mark true for AUC(0-t) under 6000 ng·h/mL, false if at or over.

>>> label_class("CCCCCCC(C)(C)c1cc(O)c2c(c1)OC(C)(C)[C@@H]1CC=C(C(=O)NC[C@@H](O)CO)C[C@@H]21")
"false"
>>> label_class("CCCCCCC(C)(C)c1cc(O)c2c(c1)OC(C)(C)[C@@H]1CC=C(C(=O)NC[C@H](O)CO)C[C@@H]21")
"true"
>>> label_class("CCCCCCC(C)(C)c1cc(O)c2c(c1)OC(C)(C)[C@@H]1CC=C(C(=O)OC(C)C)C[C@@H]21")
"true"
>>> label_class("CCCCCCC(C)(C)c1cc(O)c2c(c1)OC(C)(C)[C@@H]1CC=C(C(=O)O)C[C@@H]21 [AJA, reference compound]")
"false"

====

STUDY SYSTEM: CB2 receptor (Homo sapiens, UniProt P34972)
Sequence (P34972 whole entry): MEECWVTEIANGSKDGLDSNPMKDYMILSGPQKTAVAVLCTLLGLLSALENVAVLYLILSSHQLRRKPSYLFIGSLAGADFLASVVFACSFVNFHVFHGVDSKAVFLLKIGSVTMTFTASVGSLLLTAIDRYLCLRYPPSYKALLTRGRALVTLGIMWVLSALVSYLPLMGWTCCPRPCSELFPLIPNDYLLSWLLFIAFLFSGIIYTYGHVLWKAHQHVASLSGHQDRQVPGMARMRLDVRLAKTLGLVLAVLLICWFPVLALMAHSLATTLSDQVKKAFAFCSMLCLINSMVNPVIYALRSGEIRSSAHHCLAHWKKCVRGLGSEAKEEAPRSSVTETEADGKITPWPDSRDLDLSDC
TEST DETAILS: CB2 competitive radioligand binding assay ([3H] WIN-55,212-2)
Parameters: expressed in transfected cells; host or cells: CHO-K1 cells
# log10 Ki values compiled below
OUTCOME MEASURE: log10 Ki (log10 of the value in nM)

>>> value_observed("CCCC(C)(C)c1cc(O)c2c(c1)OC(C)(C)[C@@H]1CC=C(C(=O)NC(C)(C)C(F)(F)F)C[C@@H]21 [Compound 101]")
1.92
>>> value_observed("CCCCCCC(C)(C)c1cc(O)c2c(c1)OC(C)(C)[C@@H]1CC=C(C(=O)NC3CCC3)C[C@@H]21 [Compound 44]")
0.38
>>> value_observed("CCCCCCC(C)(C)c1cc(O)c2c(c1)OC(C)(C)[C@@H]1CC=C(C(=O)NC3CCCC3)C[C@@H]21 [Compound 92]")
0.58
>>> value_observed("CCCCCCC(C)(C)c1cc(O)c2c(c1)OC(C)(C)[C@@H]1CC=C(C(=O)NC3CNC3)C[C@@H]21 [Compound 103]")
1.71
>>> value_observed("CCCCCCC(C)(C)c1cc(O)c2c(c1)OC(C)(C)[C@@H]1CC=C(C(=O)NCCO)C[C@@H]21 [Compound 5]")
1.45
>>> value_observed("CCCCCCC(C)(C)c1cc(O)c2c(c1)OC(C)(C)[C@@H]1CC=C(C(=O)O)C[C@@H]21 [AJA, reference compound]")
2.80
>>> value_observed("CCCCCCC(C)(C)c1cc(O)c2c(c1)OC(C)(C)[C@@H]1CC=C(C(=O)N[C@@H](C)CCO)C[C@@H]21 [Compound 98]")
1.00
>>> value_observed("CCCCCCC(C)(C)c1cc(O)c2c(c1)OC(C)(C)[C@@H]1CC=C(C(=O)NOC(C)(C)C)C[C@@H]21 [Compound 88]")
0.00
>>> value_observed("CCCCCCC(C)(C)c1cc(O)c2c(c1)OC(C)(C)c1ccc(C(=O)O)cc1-2 [Compound 31]")
3.31
>>> value_observed("CCCCCCC(C)(C)c1cc(O)c2c(c1)OC(C)(C)[C@@H]1CC=C(C(=O)NC(C)(C)C)C[C@@H]21 [Compound 95]")
0.51
>>> value_observed("CCCCCCC(C)(C)c1cc(O)c2c(c1)OC(C)(C)[C@@H]1CC=C(C(=O)N3CCCCC3)C[C@@H]21 [Compound 93]")
1.50

====

STUDY SYSTEM: CB2 receptor (Homo sapiens, UniProt P34972)
TEST DETAILS: cAMP Assay #2: Hit Hunter cAMP assay, Gi-coupled agonist activity, CB2
Type: cell-based
Design: host or cells: cAMP Hunter cell lines
EXPERIMENTAL CONTEXT: Hit Hunter cAMP, CB1 EC50 / CB2 EC50
Mark 1.0 for CB2 fold selectivity under 30, 0.0 if at or over.

>>> label_class("CCCCCCC(C)(C)c1cc(O)c2c(c1)OC(C)(C)[C@@H]1CC=C(C(=O)NC3CC3)C[C@@H]21")
1.0
>>> label_class("CCCCCCC(C)(C)c1cc(O)c2c(c1)OC(C)(C)[C@@H]1CC=C(C(=O)O)C[C@@H]21 [AJA, reference compound]")
1.0
>>> label_class("CCCCCCC(C)(C)c1cc(O)c2c(c1)OC(C)(C)[C@@H]1CC=C(C(=O)NC(CO)CO)C[C@@H]21")
0.0
>>> label_class("CCCCCCC(C)(C)c1cc(O)c2c(c1)OC(C)(C)[C@@H]1CC=C(C(=O)NC3CC(F)(F)C3)C[C@@H]21")
0.0
>>> label_class("CCCCCCC(C)(C)c1cc(O)c2c(c1)OC(C)(C)[C@@H]1CC=C(C(=O)NC(C)C)C[C@@H]21")
1.0
>>> label_class("CCCCCCC(C)(C)c1cc(O)c2c(c1)OC(C)(C)[C@@H]1CC=C(C(=O)N[C@H]3C[C@H](O)C3)C[C@@H]21")
1.0
>>> label_class("CCCCCCC(C)(C)c1cc(O)c2c(c1)OC(C)(C)[C@@H]1CC=C(C(=O)NC3(C(F)(F)F)CC3)C[C@@H]21")
1.0
>>> label_class("CCCCCCC(C)(C)c1cc(O)c2c(c1)OC(C)(C)[C@@H]1CC=C(C(=O)NCCCO)C[C@@H]21")
1.0
>>> label_class("CCCCCCC(C)(C)c1cc(O)c2c(c1)OC(C)(C)[C@@H]1CC=C(C(=O)N[C@H](C)CCO)C[C@@H]21")
0.0
>>> label_class("CC(C)(CCCCCCO)c1cc(O)c2c(c1)OC(C)(C)[C@@H]1CC=C(C(=O)O)C[C@@H]21")
1.0
>>> label_class("CCCCCCC(C)(C)c1cc(O)c2c(c1)OC(C)(C)[C@@H]1CC=C(C(=O)NCC(O)CO)C[C@@H]21 (stereo partly drawn)")
0.0
>>> label_class("CCCCCCC(C)(C)c1cc(O)c2c(c1)OC(C)(C)[C@@H]1CC=C(C(=O)NC3CCCCC3)C[C@@H]21")
0.0
>>> label_class("CCCCCCC(C)(C)c1cc(O)c2c(c1)OC(C)(C)[C@@H]1CC=C(C(=O)NC(C)(C)CCO)C[C@@H]21")
0.0
>>> label_class("CCCCCCC(C)(C)c1cc(O)c2c(c1)OC(C)(C)[C@@H]1CC=C(C(=O)NC(C)(C)C(F)(F)F)C[C@@H]21")
0.0
>>> label_class("CCCCCCC(C)(C)c1cc(O)c2c(c1)OC(C)(C)[C@@H]1CC=C(C(=O)NC(C)(C)C)C[C@@H]21")
1.0
>>> label_class("CCCCCCC(C)(C)c1cc(O)c2c(c1)OC(C)(C)[C@@H]1CC=C(C(=O)NOCCO)C[C@@H]21")
1.0
>>> label_class("CCCCCCC(C)(C)c1cc(O)c2c(c1)OC(C)(C)[C@@H]1CC=C(C(=O)NC(C)=N)C[C@@H]21")
1.0
>>> label_class("CCCCC(C)(C)c1cc(O)c2c(c1)OC(C)(C)[C@@H]1CC=C(C(=O)O)C[C@@H]21")
1.0
>>> label_class("CCCCCCC(C)(C)c1cc(O)c2c(c1)OC(C)(C)[C@@H]1CC=C(C(=O)NO)C[C@@H]21")
1.0

Origin of values: patent US20210284621A1
